The reader will find reported IC50 values listed item by item below.
System: human PAR4 (Homo sapiens, UniProt Q96RI0)
Construct: expressed in transfected cells; host or cells: HEK293 PAR4 Clone 1.2A (BMS Arctic ID 383940)
Sequence (Q96RI0 18-385): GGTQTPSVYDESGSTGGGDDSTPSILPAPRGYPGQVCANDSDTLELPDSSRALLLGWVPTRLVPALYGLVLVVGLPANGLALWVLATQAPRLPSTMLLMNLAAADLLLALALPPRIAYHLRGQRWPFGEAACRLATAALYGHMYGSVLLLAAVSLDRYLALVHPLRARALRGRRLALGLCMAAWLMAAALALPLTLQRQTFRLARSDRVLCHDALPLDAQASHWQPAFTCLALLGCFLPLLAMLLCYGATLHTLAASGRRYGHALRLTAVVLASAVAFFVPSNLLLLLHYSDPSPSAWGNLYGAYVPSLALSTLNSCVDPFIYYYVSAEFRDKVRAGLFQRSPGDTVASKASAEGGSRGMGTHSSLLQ
Assay Text: PAR4 FLIPR assay: antagonism of agonist-peptide-induced calcium mobilization in PAR4-expressing HEK293 cells
Type: cell-based
Settings: H-Ala-Phe(4-F)-[…]NH2-induced intracellular calcium mobilization, 11-point curves
// note: answer is a bare numeric in nM

INSERT INTO results (query_smiles, system, display_unit, assay_result) VALUES
  ('COCc1cnc2c(-c3nc4c(C)cc(OCCNS(=O)(=O)c5ccc(F)cc5)cc4s3)cc(C(F)(F)F)cc2n1', 'human PAR4 (Homo sapiens, UniProt Q96RI0)', 'nM', 1.1),
  ('Cc1cnc2c(-c3nc4c(C)cc(OCCNS(=O)(=O)c5ccc(F)cc5)cc4s3)cc(F)cc2n1', 'human PAR4 (Homo sapiens, UniProt Q96RI0)', 'nM', 19),
  ('COc1cnc2c(-c3nc4c(C)cc(OC)nc4s3)cc(CO)cc2n1', 'human PAR4 (Homo sapiens, UniProt Q96RI0)', 'nM', 10);

Kindly review the next compound as well.
// IC50 lookup, compound = Cc1cc(-c2nc3cc(F)c(O[C@@H](C)[C@@H](C)OC(=O)Nc4cnc(C)nc4)cc3s2)c2ncc(OCCO)nc2c1 , result: 21
